- Protocol Summary: amyloid nucleation score (Sup35N fusion, yeast selection) (log enrichment); library NNK2; higher = more nucleation; inactive = no reads after selection;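 also: zero at mode of non-aggregating sequences after 7 days selection at 30°C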
Readout Label: amyloid nucleation score
# print the numeric value only

Known results for substances:
FYFLLG; 0.587
YSSVSR; -1.05
RDTVFYILSAWNLSAGSRKA; 3.04
TIGHCTEWAINMSYVFNRGY; 3.74
FTTMESDGMVFGL; 3.75
STWPIGPSCSLIVCREDCET; 1.45
DIWYLICLSQSSGLFLVGVM; -0.55
CDLFGSCVDIWDTYINLSDR; -0.573
FVGTLMDPVSLMKLRW; 0.787
LCLELFKQSVQFGLC; 0.325

Look up amyloid nucleation score: `GKLLLFSSWGRA` 0.083

Look up amyloid nucleation score: `IFWVVEFWIYYTSFLSWETR` 0.455

Look up amyloid nucleation score: `LFMRPCDLFEVVLSTVRLVW` 1.29

###

- Protocol Summary: amyloid nucleation score (Sup35N fusion, yeast selection) (log enrichment); library NNK2; higher = more nucleation; inactive = no reads after selection
Quick rule for you: amyloid nucleation score at 4 or higher means TRUE, lower means FALSE.

Dear colleague, could you confirm whether `FSVRGRWAHLWMK` has amyloid nucleation score at or above 4? FALSE

Dear colleague, could you confirm whether `YLLGRMKWLNTVRWERRDEF` has amyloid nucleation score at or above 4? FALSE

Dear colleague, could you confirm whether `PIGINSVKVSNYINLRYCAC` has amyloid nucleation score at or above 4? TRUE

###

- Protocol Summary: amyloid nucleation score (Sup35N fusion, yeast selection) (log enrichment); library NNK3; higher = more nucleation; inactive = no reads after selection
Readout Label: amyloid nucleation score

Known results for substances:
RNGVHS; 0.149
YAGQDEFFMVTVYIKPNDLC; 1.85
SSNLNRFSITVFVVERHHQF; inactive
AGAGLNKLSVLTVTTLLMIL; inactive

Look up amyloid nucleation score: `DLSSSGCKLSRIFHGHNWSR` inactive

Look up amyloid nucleation score: `FYFNYFIRMCNITCDI` 2.73

Look up amyloid nucleation score: `LHCPISYLAMSKKS` inactive

Look up amyloid nucleation score: `PCLYLGIFARTKMHPTNDCM` -0.88

Look up amyloid nucleation score: `MVCISL` inactive

###

- Protocol Summary: amyloid nucleation score (Sup35N fusion, yeast selection) (log enrichment); library NNK3; higher = more nucleation; inactive = no reads after selection
Readout Label: amyloid nucleation score

Known results for substances:
WAQLRSTWTSSKAYWLTA; inactive
EDIGGCECRYSIKDVY; inactive
YIHIGAM; inactive
YCSVFRES; 0.014
MFFQLVCYFNLSTVMTSYFE; 0.593
RVSSGSIVTRQHDLN; inactive
LSSLVSSSTSCWLWIRTNRL; inactive
YFVFKIRKDVELLVYI; inactive
DVSYYERGSSVHYTHSD; inactive
YFNLPISW; -0.316

Look up amyloid nucleation score: `NERFERMKRKSVQLPLYVVM` -0.009

Look up amyloid nucleation score: `FSALWTRHKWNFPRMTTFAR` inactive

Look up amyloid nucleation score: `ANSYLTYN` inactive

###

Entries and their amyloid nucleation score
- Protocol Summary: amyloid nucleation score (Sup35N fusion, yeast selection) (log enrichment); library NNK2; higher = more nucleation; inactive = no reads after selection
# print the numeric value only

Look up amyloid nucleation score: `LRQGCFQTVKLDYRES` -0.032

Look up amyloid nucleation score: `AIRGRLKLVDMRHVIPKLKR` 1.21

Look up amyloid nucleation score: `PLVEDLRSIYLVRCSAYLQR` 0.593

Look up amyloid nucleation score: `TGRWCVVGHRKSS` -0.056

Look up amyloid nucleation score: `HWTSFKSGNALGMCETI` 0.076

Look up amyloid nucleation score: `TRHSGKLLFNILMFRVMSCR` -0.36

Look up amyloid nucleation score: `SKGYYTLKVTYWTFR` -0.745
